- Tested on: MDA-MB-435 melanoma
- test-name: NCI-60 one-dose screen, 48 h (100 = growth as untreated, 0 = no growth, -100 = all killed)
- details: 10 µM unless noted
This is part of a sample that, as a whole, favours compounds with a hit. Of some 83,000 tested, about 20% had one in any assay.
Answer f if growth is under 20%, and t if it is 20% or more.

Qu. Evaluate "COc1cccc(-c2nc3sccn3c2-c2ccnc(NCCNS(=O)(=O)c3ccc(F)cc3)c2)c1" : growth at minimum 20%?
Ans. t

Qu. Evaluate "COc1cc(/C=C/c2cc(/C=C/c3ccc(O)c(OC)c3)n(-c3c(Cl)cccc3Cl)c(=O)n2)ccc1O" : growth at minimum 20%?
Ans. f

Qu. Evaluate Cc1ccc(C2=NN3C(C2)c2cc(Br)ccc2OC32CCN(Cc3ccccc3)CC2)o1 (centres undefined) : growth at minimum 20%?
Ans. t

Qu. Evaluate "CC1=NN(c2nc(-c3ccc(Cl)cc3)c(C#N)c(N3CCOCC3)n2)C(=O)C1" : growth at minimum 20%?
Ans. t

Qu. Evaluate "C=C(C)C(=O)Nc1ccc(NC(C)C)cc1" : growth at minimum 20%?
Ans. t

Qu. Evaluate CCOc1cc2c(cc1OCC)C(c1cc(OC)c(O)cc1Cl)NCC2 (centres undefined) : growth at minimum 20%?
Ans. t

Qu. Evaluate "COc1ccc(/C=C2\Oc3cc(OCCCCN4CCCC4)ccc3C2=O)cc1" : growth at minimum 20%?
Ans. t

Qu. Evaluate CC1CCNC(C)C1 (centres undefined) : growth at minimum 20%?
Ans. t

Qu. Evaluate COc1cccc2c1C(=O)c1c(O)c3c(c(O)c1C2=O)C[C@](O)(C(=O)CO)C[C@H]3O[C@@H]1C[C@@H](NC(=O)CCCN(C)C2(c3ccc(F)cc3)CC3CCC2C3)[C@H](O)[C@@H](C)O1 (some centres undefined) : growth at minimum 20%?
Ans. f

Qu. Evaluate "COc1cc(-c2nc3cc(Cl)c(Cl)cc3[nH]2)ccc1OCC(=O)N=Nc1c(O)[nH]c2ccccc12" : growth at minimum 20%?
Ans. f

Qu. Evaluate "Cc1cc(N2CCN(c3ccnc4cc(Cl)ccc34)CC2)nc(NC2CCCCC2)n1" : growth at minimum 20%?
Ans. f

Qu. Evaluate "CC(=O)O[C@H]1CC[C@]2(C)[C@H]3CC=C4[C@@H]5CC(C)(C)CC[C@]5(C(=O)NCCNCCN)CC[C@@]4(C)[C@]3(C)CC[C@H]2C1(C)C" : growth at minimum 20%?
Ans. f

Qu. Evaluate "Cn1ccnc1C(=O)/C=C/c1ccc(CC(=O)Nc2ccccc2)cc1" : growth at minimum 20%?
Ans. f

Qu. Evaluate "FC(F)(F)c1[nH]ncc1-c1nc2ccc3n[nH]c(C#Cc4cccnc4)c3c2c2c1CCCC2" : growth at minimum 20%?
Ans. t
